System: pdr5 ypt1^ts cells
Assay: microbe, parasite or virus in culture
Type: cell-based, yeast
Details: Table 3; 50 uM compound; 37° C.; background (0 uM) 0.077
Recorded optical density, 50 uM for the following compounds

CC1(C)C2CC(=O)O[C@@]3(C)C4=CC(=O)O[C@@H](c5ccoc5)[C@]4(C)CCC3[C@@]2(C)C=C[C@H]1O (stereo partly drawn)	0.642
COc1ccc2c(c1)OCC(Cc1ccc(OC)c(OC)c1)C2=O (stereo not drawn)	0.514
CC1(C)C(=O)C=C[C@@]2(C)C1C[C@@H](O)[C@]1(C)C2CC[C@@]2(C)[C@H](c3ccoc3)OC(=O)[C@H]3O[C@]321 (stereo partly drawn)	0.377
COc1ccc2c(c1)OCC(Cc1ccc(OC)c(OC(C)=O)c1)C2=O (stereo not drawn)	0.374
COc1ccc(-c2coc3c(OC)c(O)ccc3c2=O)cc1 [7-HYDROXY- 8,4′-DIMETH- OXYISO- FLAVONE]	0.398

Problem: Endpoint output: optical density, 50 uM of COc1ccc2c(=O)cc(-c3ccccc3OC)oc2c1 . Value?
Solution: 0.3

Problem: Endpoint output: optical density, 50 uM of CC1(C)C(=O)CC[C@@]2(C)C1C[C@@H](O)[C@@]1(C)C3=CC(=O)O[C@@H](c4ccoc4)[C@]3(C)CCC21 (stereo partly drawn) [DIHYDRO- 7- […]- OXYGEDUNIN] . Value?
Solution: 0.328

Problem: Endpoint output: optical density, 50 uM of COc1ccc(-c2coc3cc(OC)ccc3c2=O)cc1 . Value?
Solution: 0.513

Problem: Endpoint output: optical density, 50 uM of COc1ccc(/C=C/c2cc(O)cc(O)c2)cc1 . Value?
Solution: 0.331

Reference source: patent US20100305068A1
